- Target or system: T1, recombinant human CD63 extracellular loop 2 expressed with a C-terminal human Fc tag (human)
- T1 construct: also called hCD63 EC loop 2-hFc; human CD63 EC loop 2-Fc
- T1 sequence (chain, as listed by the source limits assumed): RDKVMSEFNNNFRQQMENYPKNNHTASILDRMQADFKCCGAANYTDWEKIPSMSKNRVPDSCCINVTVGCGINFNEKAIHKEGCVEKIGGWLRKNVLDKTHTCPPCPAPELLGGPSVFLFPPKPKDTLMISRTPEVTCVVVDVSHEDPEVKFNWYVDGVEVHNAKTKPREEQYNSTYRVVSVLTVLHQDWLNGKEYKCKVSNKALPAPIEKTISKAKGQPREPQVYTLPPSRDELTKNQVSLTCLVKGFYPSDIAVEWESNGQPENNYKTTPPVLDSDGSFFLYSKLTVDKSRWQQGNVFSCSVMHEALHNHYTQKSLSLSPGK
- Experiment description: SPR Biacore, mAb captured, 37C
Readout label: pKd
When answering, recall that pKd equals minus log10 of the concentration in mol/L, and write that number alone.

Solved cases below.
H2M12450N (antibody, V domains shown, also called H2aM12450N; mAb12450) VH: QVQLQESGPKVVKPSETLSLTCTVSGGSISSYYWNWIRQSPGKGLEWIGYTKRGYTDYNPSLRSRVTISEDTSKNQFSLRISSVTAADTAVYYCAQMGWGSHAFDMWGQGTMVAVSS VL: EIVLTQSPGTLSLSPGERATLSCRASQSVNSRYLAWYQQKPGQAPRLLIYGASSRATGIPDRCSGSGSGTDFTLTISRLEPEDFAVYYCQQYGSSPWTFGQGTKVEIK | 9.92
H2M12454N (antibody, V domains shown, also called H2bM12454N) VH: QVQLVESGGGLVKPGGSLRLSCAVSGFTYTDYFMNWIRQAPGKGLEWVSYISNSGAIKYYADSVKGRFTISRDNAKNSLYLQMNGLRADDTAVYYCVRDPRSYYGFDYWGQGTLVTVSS VL: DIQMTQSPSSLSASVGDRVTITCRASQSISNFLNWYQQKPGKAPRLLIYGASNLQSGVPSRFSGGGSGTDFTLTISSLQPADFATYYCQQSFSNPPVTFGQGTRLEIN | 9.05

Give recorded pKd. H1M12362N (antibody, V domains shown) VH: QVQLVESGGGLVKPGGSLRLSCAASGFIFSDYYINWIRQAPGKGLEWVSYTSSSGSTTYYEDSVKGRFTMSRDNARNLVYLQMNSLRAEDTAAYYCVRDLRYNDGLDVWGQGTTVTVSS VL: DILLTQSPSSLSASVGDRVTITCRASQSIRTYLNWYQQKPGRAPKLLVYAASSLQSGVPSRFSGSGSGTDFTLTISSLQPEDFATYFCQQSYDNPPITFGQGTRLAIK
9.01

Please supply the value of reported pKd for the item H1M12386N (antibody, V domains shown) VH: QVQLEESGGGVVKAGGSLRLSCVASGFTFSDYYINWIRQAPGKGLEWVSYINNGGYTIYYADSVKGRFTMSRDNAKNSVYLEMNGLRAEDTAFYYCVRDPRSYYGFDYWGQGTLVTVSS VL: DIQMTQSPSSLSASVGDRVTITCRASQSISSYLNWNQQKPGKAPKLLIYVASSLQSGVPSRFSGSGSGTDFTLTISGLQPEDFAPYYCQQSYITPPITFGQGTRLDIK
9.16

Determine from records and report pKd for H2M13022N (antibody, V domains shown, also called H2bM13022N) VH: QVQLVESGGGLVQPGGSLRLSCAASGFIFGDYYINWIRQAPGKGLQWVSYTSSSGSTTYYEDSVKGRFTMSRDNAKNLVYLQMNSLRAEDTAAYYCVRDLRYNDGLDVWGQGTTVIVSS VL: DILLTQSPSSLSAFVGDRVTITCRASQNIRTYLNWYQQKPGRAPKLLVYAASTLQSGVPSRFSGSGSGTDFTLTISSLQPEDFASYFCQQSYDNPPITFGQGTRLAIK
9.00
